All figures here come from paper PMC3994062.

biological target: PbICLc (Paracoccidioides lutzii, UniProt C1H8F5); assay: Enzymatic activity of native PbICL in crude protein extract of yeast cells (PbICLc); assay type: biochemical; details: crude extract of yeast cells
Sequence (C1H8F5 entry or part of it): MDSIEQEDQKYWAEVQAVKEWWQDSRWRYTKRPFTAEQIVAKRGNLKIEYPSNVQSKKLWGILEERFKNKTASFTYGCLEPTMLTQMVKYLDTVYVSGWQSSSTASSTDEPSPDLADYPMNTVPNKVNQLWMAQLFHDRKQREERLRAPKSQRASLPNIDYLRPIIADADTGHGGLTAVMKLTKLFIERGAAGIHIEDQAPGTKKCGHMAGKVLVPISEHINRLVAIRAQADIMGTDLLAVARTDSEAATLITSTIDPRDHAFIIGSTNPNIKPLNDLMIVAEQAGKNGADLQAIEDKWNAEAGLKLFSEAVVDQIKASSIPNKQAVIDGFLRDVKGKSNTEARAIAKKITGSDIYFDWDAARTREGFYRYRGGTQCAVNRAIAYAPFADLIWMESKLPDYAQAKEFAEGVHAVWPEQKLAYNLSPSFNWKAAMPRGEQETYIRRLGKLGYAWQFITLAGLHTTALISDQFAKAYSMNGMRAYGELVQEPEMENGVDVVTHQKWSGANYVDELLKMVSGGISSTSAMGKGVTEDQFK
ENDPOINT: inhibition of native PbICL activity

COMPOUND | ENDPOINT | OBSERVED_VALUE
CCCCCC1OC1C1CC=CC(=O)O1 (stereo not shown) | inhibition of native PbICL activity | No inhibition
CCCCC[C@@H](O)[C@H](O)[C@H]1CC=CC(=O)O1 | inhibition of native PbICL activity | No inhibition
CCCCC/C=C\[C@H]1CC=CC(=O)O1 | inhibition of native PbICL activity | inhibited
CCCCCCCC1CC=CC(=O)O1 (stereo in doubt) | inhibition of native PbICL activity | inhibited

###

target: PbICLr (Paracoccidioides lutzii); experiment: Enzymatic activity of recombinant isocitrate lyase (PbICLr); assay type: biochemical
Give measured pIC50 for each item. Keep answers brief.
One number for each entry, as −log10 of the molar value.

COMPOUND | pIC50
CCCCC/C=C\[C@H]1CC=CC(=O)O1 [Argentilactone] | 4.54

Note: attention shifts to another entry.
Enquiry: Entry CCCCCCCC1CC=CC(=O)O1 (stereo in doubt) [Reduced argentilactone] has what pIC50?
Return: 4.52

###

Molecular target: PbICLr (Paracoccidioides lutzii, UniProt C1H8F5)
Sequence (C1H8F5 entry or part of it): as above
Test: Enzymatic activity of recombinant isocitrate lyase (PbICLr)
Type: biochemical
Conditions: recombinant enzyme; N.I. = No inhibition found; read-out: IC50 PbICLr
Description: Recombinant PbICL protein was obtained as described by Cruz. Briefly, Pbicl cDNA was inserted into the pET-32a (+) expression vector (Novagen, Inc,). The resulting plasmid was transformed into E. coli BL21 C43 (DE3) cells, and expression was induced at an A600 of 0.6 by the addition of 1 mm (final concentration) isopropyl thio-β-D-galactoside (IPTG) (Sigma-Aldrich). […] ICL activity was determined according to Cruz et al.. […]
ENDPOINT: IC50 (µM)
Answers are plain numbers, in µM.

Enquiry: Entry O=C(O)CC[N+](=O)[O-] [3-Nitropropionate, reference compound] has what IC50?
Return: 25.7

###

target: PbICLc (Paracoccidioides lutzii); assay: Enzymatic activity of native PbICL in crude protein extract of yeast cells (PbICLc); type: biochemical; details: read-out: IC50 PbICLc Glucose; crude extract, glucose; N.I. = No inhibition found
ENDPOINT: IC50
Quick note: number first, unit second.

COMPOUND | STUDY_SYSTEM | IC50
CCCCC/C=C\[C@H]1CC=CC(=O)O1 | PbICLc (Paracoccidioides lutzii) | 80 µM

Note: attention shifts to another entry.
Enquiry: Entry CCCCCCCC1CC=CC(=O)O1 (stereo in doubt) has what IC50?
Return: 85 µM

###

Give measured Specific activity PbICLc Glucose for each item. Keep answers brief.
molecular target: PbICLc (Paracoccidioides lutzii); experiment: Enzymatic activity of native PbICL in crude protein extract of yeast cells (PbICLc); type: biochemical; conditions: crude extract of yeast cells grown on glucose; N.I. = No inhibition found; control 0.010±0.002
Give bare numbers, in U/mg.

// each compound listed below needs its Specific activity PbICLc Glucose
1. CCCCCCCC1CC=CC(=O)O1 (stereo in doubt)
2. O=C(O)CC[N+](=O)[O-] [3-Nitropropionate, reference compound]

Return:
[0.009, 0.008]
